target of assay: Proteasome Macropain subunit MB1 (Homo sapiens, UniProt P28074)
Sequence (P28074 whole entry): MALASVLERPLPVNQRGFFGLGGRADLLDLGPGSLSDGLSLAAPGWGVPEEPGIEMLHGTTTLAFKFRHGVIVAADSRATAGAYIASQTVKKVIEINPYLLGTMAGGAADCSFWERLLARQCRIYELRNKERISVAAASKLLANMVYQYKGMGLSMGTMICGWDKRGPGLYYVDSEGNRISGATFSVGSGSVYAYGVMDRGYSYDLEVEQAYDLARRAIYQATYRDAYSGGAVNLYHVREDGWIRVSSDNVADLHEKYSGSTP
protocol: Noncompetitive inhibition of chymotrypsin-like activity of human constitutive 20s proteasome beta-5 subunit using Suc-LLVY-AMC as substrate assessed as inhibition constant for dissociation of enzyme-inhibitor complex incubated for 15 mins prior to substrate addition measured after 45 mins by fluorescence assay
pKi: −log10 of the molar value.

{"columns": ["smiles entry", "pKi"],
 "data": [
  ["C[C@H](NC(=O)[C@@H](N)Cc1ccc(OCc2ccccc2)cc1)C(=O)N[C@@H](C[C@]1(O)C(=O)Nc2ccccc21)C(=O)NCc1ccccc1", 4.61]
]}

* * *

# pIC50 listing for each entry below
target of assay: Proteasome Macropain subunit MB1 (Homo sapiens, UniProt P28074)
pIC50: −log10 of the molar value.

{"columns": ["smiles entry", "pIC50"],
 "data": [
  ["C[C@H](NC(=O)[C@H](Cc1ccc(OCc2ccccc2)cc1)NC(=O)CCCCCNC(=O)CCCCCNC(=O)CCCCCNC(=O)CCCCCNC(=O)OC(C)(C)C)C(=O)N[C@@H](C[C@]1(O)C(=O)Nc2ccccc21)C(=O)NCc1ccccc1", 6.15],
  ["C[C@H](NC(=O)[C@@H](N)Cc1ccc(OCc2ccccc2)cc1)C(=O)N[C@@H](C[C@]1(O)C(=O)Nc2ccccc21)C(=O)NCc1ccccc1", 4.94],
  ["C[C@H](NC(=O)[C@H](Cc1ccc(OCc2ccccc2)cc1)NC(=O)OC(C)(C)C)C(=O)N[C@@H](C[C@]1(O)C(=O)Nc2ccccc21)C(=O)NCc1ccccc1", 5.50],
  ["C/C=C\\NC(=O)[C@H]1NC(=O)[C@H](CC(N)=O)CC(=O)[C@@H](NC(=O)C(=O)[C@@H](C)CC)Cc2ccc(O)c(c2)-c2cccc3c2NC(=O)[C@@]3(O)[C@@H]1O", 8.27],
  ["C[C@H](NC(=O)[C@H](Cc1ccc(OCc2ccccc2)cc1)NC(=O)CCCCCNC(=O)CCCCCNC(=O)CCCCCNC(=O)CCCCCNC(=O)CCCCCNC(=O)CCCCC(=O)N[C@@H](Cc1ccc(OCc2ccccc2)cc1)C(=O)N[C@@H](C)C(=O)N[C@@H](C[C@]1(O)C(=O)Nc2ccccc21)C(=O)NCc1ccccc1)C(=O)N[C@@H](C[C@]1(O)C(=O)Nc2ccccc21)C(=O)NCc1ccccc1", 7.64],
  ["C[C@H](NC(=O)[C@H](Cc1ccc(OCc2ccccc2)cc1)NC(=O)CCCCCNC(=O)CCCCCNC(=O)CCCCCNC(=O)OC(C)(C)C)C(=O)N[C@@H](C[C@]1(O)C(=O)Nc2ccccc21)C(=O)NCc1ccccc1", 6.34],
  ["C[C@H](NC(=O)[C@H](Cc1ccc(OCc2ccccc2)cc1)NC(=O)CCCCCNC(=O)CCCCCNC(=O)CCCCCNC(=O)CCCCC(=O)NCCCCCC(=O)NCCCCCC(=O)NCCCCCC(=O)N[C@@H](Cc1ccc(OCc2ccccc2)cc1)C(=O)N[C@@H](C)C(=O)N[C@@H](C[C@]1(O)C(=O)Nc2ccccc21)C(=O)NCc1ccccc1)C(=O)N[C@@H](C[C@]1(O)C(=O)Nc2ccccc21)C(=O)NCc1ccccc1", 7.72],
  ["C[C@H](NC(=O)[C@H](Cc1ccc(OCc2ccccc2)cc1)NC(=O)CCCCCNC(=O)CCCCCNC(=O)CCCCCNC(=O)CCCCCNC(=O)CCCCC(=O)N[C@@H](Cc1ccc(OCc2ccccc2)cc1)C(=O)N[C@@H](C)C(=O)N[C@@H](C[C@]1(O)C(=O)Nc2ccccc21)C(=O)NCc1ccccc1)C(=O)N[C@@H](C[C@]1(O)C(=O)Nc2ccccc21)C(=O)NCc1ccccc1", 7.59]
]}
